system: A2780; assay: cytotoxic activity toward A2780 ovarian human cell line resistant (R) to cisplatin in experiment 3; assay type: functional, cell-based; conditions: Homo sapiens, A2780
parameter: IC50
Express the reported value numerically, then name its unit.

Requested read-out: IC50. Entry: `c1cnc2c(c1)ccc1cccnc12`
2730 nM

* * *

test system: A2780; assay: cytotoxic activity toward A2780 ovarian human cell line resistant (R) to cisplatin in experiment 5; assay type: functional, cell-based
parameter: IC50 (µM)
Respond numerically; units are µM and should not be typed.

Can you share its IC50? I mean this substance: `AUPHEN`
3.49
